experimentSummary: blockers of ER-stress CHOP reporter expression – cell-based, unfolded protein response, luciferase reporter, primary screen (AID 2732);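 also: 0% = tunicamycin plus vehicle and 100% = wells without tunicamycin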
settings: CHO-K1 CHOP-promoter luciferase, tunicamycin-induced, 15-18 h; at 10 µM; stronger effect = higher value
Among all 220,000 compounds or so, about 8,200 (3.7%) were called active. The entries come from a sample that favours actives as a whole.
# maps each entry to its inhibition
# unit: % | format: bare number

According to the records, this molecule O=C(NC(=O)N1CCSCC1)c1c(Cl)cccc1Cl displays inhibition of 12.1

For record O=S(=O)(Nc1ccc(Cl)cn1)c1cnc(Cl)c(Br)c1 the listed inhibition is 9.6

Measured inhibition of CCN(C(=O)COC(=O)c1ccc(COc2ccc3c(C)cc(=O)oc3c2)cc1)C1CCS(=O)(=O)C1 (stereo not given) : -17.9

Cc1ccc(C2(C(F)(F)F)N=C3Sc4cc(C)cc(C)c4N3C(=O)N2)cc1 (stereo not given) has a reported inhibition of 76.7

// sample O=C(C[n+]1ccc2c(c1)nnn2-c1ccccc1)c1ccc(Cl)cc1 , its inhibition was 34.6

====

experimentSummary: blockers of ER-stress CHOP reporter expression – cell-based, unfolded protein response, luciferase reporter, primary screen (AID 2732);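 also: 0% = tunicamycin plus vehicle and 100% = wells without tunicamycin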
settings: CHO-K1 CHOP-promoter luciferase, tunicamycin-induced, 15-18 h; at 10 µM; stronger effect = higher value
Out of some 220,000 compounds screened, about 8,200 (3.7%) were called active. The sample as a whole holds a higher share of actives than the screen did.
# inhibition per record follows

See these solved cases before continuing.
# molecule COC(=O)c1cc(NC(=O)c2cc(C(C)(C)C)nn2Cc2cccc(C)c2)ccc1N1CCOCC1 ; its inhibition = 42.8% (inactive)

Value of measured inhibition for the entry CC(C)(C)C1C/C(=C/c2ccco2)C(=O)/C(=C/c2ccco2)C1 (configuration not stated) : 108% (active)

The molecule C[C@@H](NC(=O)OC(C)(C)C)c1nnc(S(=O)(=O)Cc2ccccc2)o1 showed inhibition equal to 86.2% (active)

molecule C=CCC(Nc1ccccc1)c1cccc(OC)c1OC (configuration not stated) , inhibition observed: 29.3% (inactive)

Record CCOc1cc2c(Cl)ncnc2c(OCC)c1OCC . Reported inhibition: 23.1% (inactive)

More entries:
Sample CCC(=O)N1CCCc2ccccc21 ; inhibition observed: -4.19% (inactive)

In plain terms, O=C(CCc1ccccc1)Nc1ncc([N+](=O)[O-])s1 has a documented inhibition of -9.45% (inactive)

Data point: CCCCN1C(=O)/C(=C/C=C2/C=Cc3ccccc3N2CC)SC1=S ; inhibition = 70.5% (active)

Lab note: measured inhibition of Cc1cc(-c2n[nH]c(=S)n2/N=C/C(Br)=C/c2ccccc2)n[nH]1 was 106% (active)

// recorded inhibition for O=C1N/C(=N\N=C\c2ccco2)SC1Cc1ccc(F)cc1 (configuration not stated) : 2.81% (inactive)

Please fill in: inhibition reported for CSc1nnc(SCc2nc3sc(C(=O)O)c(C)c3c(=O)[nH]2)s1 = 3.13% (inactive)

====

experimentSummary: blockers of ER-stress CHOP reporter expression – cell-based, unfolded protein response, luciferase reporter, primary screen (AID 2732);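 also: 0% = tunicamycin plus vehicle and 100% = wells without tunicamycin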
settings: CHO-K1 CHOP-promoter luciferase, tunicamycin-induced, 15-18 h; at 10 µM
Hit rate of the full screen: of about 220,000 compounds, about 8,200 (3.7%) were called active.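 Rule for the calls: active = compounds that reduced the stress-induced luciferase reporter signal by more than about 70% of percent inhibition (limit read from the data); inactive = the rest.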 The entries come from a sample that favours actives as a whole.
Allowed answers: 1 (yes) for active, 0 (no) for inactive

Example entries and their recorded answers appear below.
Data request: Dear all, I need the recorded test outcome for C=C(C)COc1ccc(-c2n[nH]c(C)c2-c2ccccc2)c(O)c1 , thank you.
Data returned: 1 (yes)

Data request: Short answer needed: outcome of this test for Cc1[nH]nc(-c2ccc(OCc3cnn(-c4ccccc4)c3)cc2O)c1Oc1ccc(Cl)cc1 ?
Data returned: 0 (no)

Data request: Per the records of this test, what outcome belongs to C=C(C)COc1ccc(-c2n[nH]c(C)c2-c2ccccc2OC)c(O)c1 ?
Data returned: 1 (yes)

Data request: // outcome(item) with item = CCOc1ccc(-c2n[nH]c(C)c2-c2ccccn2)c(O)c1
Data returned: 0 (no)

Data request: Per the records of this test, what outcome belongs to COc1cccc(OC)c1C(=O)Nc1ccc(N2CCCCC2)cc1 ?
Data returned: 0 (no)

***
Data request: Status in this test for CCN(CC)S(=O)(=O)c1cc([N+](=O)[O-])ccc1NNC(=O)Nc1ccccc1 ?
Data returned: 1 (yes)

Data request: For this molecule, state the assay outcome: O=C(CSCC(=O)Nc1cccc([N+](=O)[O-])c1)Nc1ccccc1
Data returned: 0 (no)

Data request: Hey, what did the test say about CCN(CC)S(=O)(=O)c1cc([N+](=O)[O-])ccc1N=Nc1c(O)n(C)c2ccccc12 ?
Data returned: 0 (no)

Data request: Test call, this molecule: Cn1nnc(NC(=S)NC(=O)c2ccccc2)n1
Data returned: 0 (no)

Data request: // outcome(item) with item = CCOc1ccc(-c2nc(N)ncc2-c2ccccc2OC)c(O)c1
Data returned: 0 (no)
